pIC50 reference
- assay-comment: Inhibition of porcine pancreatic alpha-amylase using starch as substrate preincubated for 10 min followed by substrate addition and measured after 20 min by absorbance based analysis
- Design: species or system Sus scrofa
pIC50: −log10 of the molar value.

# smiles-code, pIC50
measured = [
    ("C#CCOc1ccc(/C=C2\\SC(=O)N(Cc3cccc([N+](=O)[O-])c3)C2=O)cc1OCC", 5.04),
    ("CCOc1cc(/C=C2\\SC(=O)N(Cc3cccc([N+](=O)[O-])c3)C2=O)ccc1OCc1cccc([N+](=O)[O-])c1", 4.19),
    ("CCOc1cc(/C=C2\\SC(=O)N(Cc3cccc([N+](=O)[O-])c3)C2=O)ccc1OCc1ccc(Cl)cc1", 3.90),
    ("C=CCOc1ccc(/C=C2\\SC(=O)N(Cc3cccc([N+](=O)[O-])c3)C2=O)cc1OCC", 4.77),
    ("CCOc1cc(/C=C2\\SC(=O)N(Cc3cccc([N+](=O)[O-])c3)C2=O)ccc1OCc1ccccc1", 4.26),
    ("O=C1/C(=C2/SC(=O)N(Cc3cccc([N+](=O)[O-])c3)C2=O)Nc2ccc(Cl)cc21", 4.29),
    ("CCOc1cc(/C=C2\\SC(=O)N(Cc3cccc([N+](=O)[O-])c3)C2=O)ccc1OS(=O)(=O)c1ccc(C)cc1", 4.31),
    ("CCOc1cc(/C=C2\\SC(=O)N(Cc3cccc([N+](=O)[O-])c3)C2=O)ccc1OCc1ccc(C)cc1", 4.27),
]

====

- assay-comment: Inhibition of porcine pancreatic alpha-amylase using starch as substrate preincubated for 10 min followed by substrate addition and measured after 20 min by absorbance based analysis
- Design: species or system Sus scrofa

# smiles-code, IC50 [µM]
measured = [
    ("O=C1/C(=C2/SC(=O)N(Cc3cccc([N+](=O)[O-])c3)C2=O)Nc2ccccc21", 44),
    ("CCOc1cc(/C=C2\\SC(=O)N(Cc3cccc([N+](=O)[O-])c3)C2=O)ccc1OCc1ccc([N+](=O)[O-])cc1", 93.5),
    ("O=C1/C(=C2/SC(=O)N(Cc3cccc([N+](=O)[O-])c3)C2=O)Nc2ccc(Br)cc21", 61),
    ("CCOc1cc(/C=C2\\SC(=O)N(Cc3cccc([N+](=O)[O-])c3)C2=O)ccc1OCc1ccc(F)cc1", 60.1),
]

====

# Activity_index annotations
- Tested on: PANC-1
- assay-comment: Antioxidant activity in human PANC-1 cells assessed as decrease in high glucose induced ROS production by measuring minimum fractional index at 5 uM incubated for 24 hrs by DCFDA-staining based flow cytometry analysis
- Type: functional
observable: Activity_index

# molecule, observable, value-measured
records = [
    ("CCOc1cc(/C=C2\\SC(=O)N(Cc3cccc([N+](=O)[O-])c3)C2=O)ccc1OS(=O)(=O)c1ccc(C)cc1", "Activity_index", 957),
    ("CCOc1cc(/C=C2\\SC(=O)N(Cc3cccc([N+](=O)[O-])c3)C2=O)ccc1OCc1ccc(C)cc1", "Activity_index", 230),
    ("CCOc1cc(/C=C2\\SC(=O)N(Cc3cccc([N+](=O)[O-])c3)C2=O)ccc1OCc1ccccc1", "Activity_index", 898),
    ("C[C@H]1O[C@H](O[C@H]2[C@H](O)[C@@H](O)[C@@H](O[C@H]3[C@H](O)[C@@H](O)C(O)O[C@@H]3CO)O[C@@H]2CO)[C@H](O)[C@@H](O)[C@@H]1N[C@H]1C=C(CO)[C@@H](O)[C@H](O)[C@H]1O (stereo partly drawn) [ACARBOSE]", "Activity_index", 149),
    ("CCOc1cc(/C=C2\\SC(=O)N(Cc3cccc([N+](=O)[O-])c3)C2=O)ccc1OCc1ccc(F)cc1", "Activity_index", 2438),
    ("O=C1/C(=C2/SC(=O)N(Cc3cccc([N+](=O)[O-])c3)C2=O)Nc2ccc(Cl)cc21", "Activity_index", 3063),
    ("CCOc1cc(/C=C2\\SC(=O)N(Cc3cccc([N+](=O)[O-])c3)C2=O)ccc1OCc1cccc([N+](=O)[O-])c1", "Activity_index", 4225),
    ("CCOc1cc(/C=C2\\SC(=O)N(Cc3cccc([N+](=O)[O-])c3)C2=O)ccc1OCc1ccc(Cl)cc1", "Activity_index", 4225),
    ("CCOc1cc(/C=C2\\SC(=O)N(Cc3cccc([N+](=O)[O-])c3)C2=O)ccc1OCc1ccc([N+](=O)[O-])cc1", "Activity_index", 676),
    ("O=C1/C(=C2/SC(=O)N(Cc3cccc([N+](=O)[O-])c3)C2=O)Nc2ccccc21", "Activity_index", 3041),
    ("O=C1/C(=C2/SC(=O)N(Cc3cccc([N+](=O)[O-])c3)C2=O)Nc2ccc(Br)cc21", "Activity_index", 2982),
    ("C=CCOc1ccc(/C=C2\\SC(=O)N(Cc3cccc([N+](=O)[O-])c3)C2=O)cc1OCC", "Activity_index", 97.6),
    ("C#CCOc1ccc(/C=C2\\SC(=O)N(Cc3cccc([N+](=O)[O-])c3)C2=O)cc1OCC", "Activity_index", 85.2),
]

====

- assayed-system: alpha-glucosidase (Saccharomyces cerevisiae)
- assay-comment: Inhibition of Saccharomyces cerevisiae alpha-glucosidase using 4-nitrophenyl-alpha-D-glucopyranoside as substrate incubated with compound for 15 to 20 min by absorbance based analysis
observable: IC50 (µM)

# smiles-code, output-unit, value-measured
data = [
    ("CCOc1cc(/C=C2\\SC(=O)N(Cc3cccc([N+](=O)[O-])c3)C2=O)ccc1OS(=O)(=O)c1ccc(C)cc1", "µM", 42.24),
    ("CCOc1cc(/C=C2\\SC(=O)N(Cc3cccc([N+](=O)[O-])c3)C2=O)ccc1OCc1ccc(C)cc1", "µM", 20.31),
    ("O=C1/C(=C2/SC(=O)N(Cc3cccc([N+](=O)[O-])c3)C2=O)Nc2ccc(Cl)cc21", "µM", 53.18),
    ("C#CCOc1ccc(/C=C2\\SC(=O)N(Cc3cccc([N+](=O)[O-])c3)C2=O)cc1OCC", "µM", 5.15),
    ("CCOc1cc(/C=C2\\SC(=O)N(Cc3cccc([N+](=O)[O-])c3)C2=O)ccc1OCc1ccc(F)cc1", "µM", 46.51),
    ("CCOc1cc(/C=C2\\SC(=O)N(Cc3cccc([N+](=O)[O-])c3)C2=O)ccc1OCc1ccccc1", "µM", 31.2),
    ("CCOc1cc(/C=C2\\SC(=O)N(Cc3cccc([N+](=O)[O-])c3)C2=O)ccc1OCc1ccc(Cl)cc1", "µM", 96.15),
    ("O=C1/C(=C2/SC(=O)N(Cc3cccc([N+](=O)[O-])c3)C2=O)Nc2ccccc21", "µM", 58.44),
    ("CCOc1cc(/C=C2\\SC(=O)N(Cc3cccc([N+](=O)[O-])c3)C2=O)ccc1OCc1cccc([N+](=O)[O-])c1", "µM", 99.1),
    ("C=CCOc1ccc(/C=C2\\SC(=O)N(Cc3cccc([N+](=O)[O-])c3)C2=O)cc1OCC", "µM", 9.8),
    ("CCOc1cc(/C=C2\\SC(=O)N(Cc3cccc([N+](=O)[O-])c3)C2=O)ccc1OCc1ccc([N+](=O)[O-])cc1", "µM", 38.33),
    ("O=C1/C(=C2/SC(=O)N(Cc3cccc([N+](=O)[O-])c3)C2=O)Nc2ccc(Br)cc21", "µM", 68.76),
]
